Just for reference, PubChem BioAssay is where these values come from.

# PROCEDURE DETAILS: E. coli growth modulation, two-sided OD650, primary screen, E. coli filamentation project, strain DRC41, 24 h (AID 1093);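 further: MC1000 strain lacking acrAB efflux and sulA so SOS filamentation is blocked; test concentration not given here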
# COND: OD650, 24 h, higher = more signal, called active from +8 up or from −8 down
Would you please tag the item 1 when its z-score is 0.4 or above, and -1 when it is below?

C[C@@H](c1ccccc1)N1C(=O)[C@H]2[C@H]3[C@H](O)[C@H](O)CC(=O)[C@H]3CC[C@H]2C1=O : 1
CCN1C(=O)[C@H]2[C@H]3[C@H](O)[C@H](O)CC(=NNC(=O)OCc4ccc(OC)cc4)[C@@H]3CC[C@H]2C1=O : -1
CO[C@H]1COC(=O)CC=C[C@H](C)[C@@H](OC)COC(=O)[C@H](C)COC(=O)CC=C[C@@H]1C : 1
C=CC[C@@H]1C=C[C@H](ON=C(C)CCC(=O)OC[C@H]2O[C@H](c3ccccc3)C=C[C@@H]2Oc2ccc(OC)cc2)[C@@H](CO)O1 : -1
CCOC(=O)[C@H](CC(C)C)NC(=O)CCC1CC(OC(=O)NCc2ccc3c(c2)OCO3)CC2(CCCC(COC(=O)NCC(c3ccccc3)c3ccccc3)O2)O1 (some centres not stated) : -1

Form field: z-score at least 0.4? Entry: CC(C)CON=C1C[C@@H](O)[C@@H](O)[C@@H]2[C@@H]3C(=O)N(C[C@@H]4CCCO4)C(=O)[C@@H]3CC[C@@H]12 1

Form field: z-score at least 0.4? Entry: CCOC(=O)[C@H](Cc1ccccc1)NC(=O)CCC1CC(OC(=O)NCCc2ccc(F)cc2)CC2(CCCC(COC(=O)NCc3ccccc3)O2)O1 (some centres not stated) 1

* * *

# PROCEDURE DETAILS: PSAC antagonists in infected red cells, primary screen, cell-based, P. falciparum Indochina, OD700, 18 h (AID 1157)
# COND: P. falciparum Indochina infected erythrocytes, osmotic lysis OD700, 18 h; higher = more signal, called active from +8 up or from −8 down
Recorded z-score, one value per entry.
Returns: the value as a bare number; no unit string appended.

CO[C@H]1COC(=O)CC=C[C@H](C)[C@@H](OC)COC(=O)[C@@H](C)COC(=O)CC=C[C@@H]1C : -0.213

Record COc1ccc(C#C[C@@H]2C=C[C@H](OC(C)=O)[C@@H](COC(C)=O)O2)cc1 , field z-score: -0.0979

Record CO[C@@H]1COC(=O)[C@@H]2CCCN2C(=O)[C@@H](C)COC(=O)CC=C[C@H]1C , field z-score: 0.0246

Record CC(CCN1CCCc2nc(C)c(C)cc21)=NOC(C)CN1CCCCc2nc(C)c(C)cc21 (stereo not given) , field z-score: 0.415

* * *

# PROCEDURE DETAILS: small-molecule microarray binders of probe aWnt5a, primary screen, biochemical, biotinylated probe, 635/667 nm fluorescence (AID 1113);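 further: score merges 667 nm fluorescence intensity with signal-to-noise per printed feature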
# COND: higher = more signal
ENDPOINT LABEL: composite z-score

Some solved entries appear below for comparison.
CO[C@H]1COC(=O)[C@@H](C)COC(=O)[C@@H](OCc2ccccc2)C=C[C@@H]1C : -0.0346
O=C1C[C@@H](O)[C@@H](O)[C@@H]2[C@@H]3C(=O)N(C[C@@H]4CCCO4)C(=O)[C@@H]3CC[C@H]12 : -0.0478
COC(=O)C=CCCc1coc(C=CCNC(=O)OC)n1 : -0.0346
O=C1[C@H]2[C@H]3[C@H](O)[C@H](O)CC(=NOC[C@@H](O)COCc4ccco4)[C@H]3CC[C@H]2C(=O)N1c1ccc(F)cc1F : -0.282

Record COC(=O)[C@H](C)NC(=O)CCC1CC(OC(=O)NCc2ccc3c(c2)OCO3)CC2(CCCC(COC(=O)NCC3CCCCC3)O2)O1 (stereo partly drawn) , field composite z-score: 0.0775

Record CCc1cc2c(nc1CC)CCN(CCC(C)=NOC[C@H]1O[C@H](c3ccccc3)C=C[C@@H]1Oc1ccc(OC)cc1)C2 , field composite z-score: -0.0944

Record CCOC(=O)NN=C1C[C@@H](O)[C@@H](O)[C@@H]2[C@@H]3C(=O)N([C@@H](C)c4ccccc4)C(=O)[C@@H]3CC[C@@H]12 , field composite z-score: -0.191

Record COC(=O)[C@@H]1CC[C@H](C)[C@@H](c2ccc(C)cc2)N1C(=O)c1ccc(C=NO[C@H](C)c2cn([C@@H]3COC[C@H]3O)nn2)cc1 , field composite z-score: -0.152
